# STUDY_TARGET: gp120 (MN strain) (Human immunodeficiency virus type 1 group M subtype B, UniProt P05877)
# EXPERIMENT_NOTES: Irreversible hapten CAL binding by gp120
TEST_READOUT: Kd (µM)
Give bare numbers, in µM.

IN: So what does the record say about Kd for N=C(N)c1ccc(C(NC(=O)CCCCCNC(=O)CCCC[C@@H]2SC[C@@H]3NC(=O)N[C@@H]32)P(=O)(Oc2ccccc2)Oc2ccccc2)cc1 (stereo partly shown) [hapten CAL I] ?
OUT: 710

###

# Test system: human polyclonal IgG HS-2
# EXPERIMENT_NOTES: Irreversible inhibition of HS-2 IgG-catalyzed [Tyr10-125I]-VIP cleavage
# Type: biochemical
# ASSAY_CONTEXT: IgG 2 μM preincubated 16 h, unreacted CAL removed
TEST_READOUT: IC50 (µM)
Numbers only, in µM.

IN: So what does the record say about IC50 for N=C(N)c1ccc(C(NC(=O)CCCCCNC(=O)CCCC[C@@H]2SC[C@@H]3NC(=O)N[C@@H]32)P(=O)(Oc2ccccc2)Oc2ccccc2)cc1 (stereo partly shown) [hapten CAL I] ?
OUT: 36

These entries and their values trace back to patent US9006388B2.
